Where do the numbers come from? From PubChem BioAssay AID1159580.

Provide the reported normalized growth of each item.
# experiment: chemical genetic growth profiling, strain panel (AID 1159580);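 further: tested at 20 µM; growth read once vehicle control cultures reached saturation at 30 °C; 1 = growth at the plate median or of vehicle wells; lower values mean less growth of the strain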
# measurement-conditions: S. cerevisiae deletion strains, growth OD, locus YPL051W, strain arl3, active compounds read low
The whole screen tested about 5,500 compounds, of which about 2,000 (36%) were called active. About 18% were inconclusive and are not listed. The list shows a part of the results.
Give bare numbers.

Examples with answers:
compound	normalized growth
CCN(CC)CCNC(=O)c1cc(S(C)(=O)=O)ccc1OC	1
C1CCN2C[C@@H]3C[C@H](CN4CCCC[C@@H]34)[C@H]2C1	0.999
CN/C(=C\[N+](=O)[O-])NCCSCc1ccc(CN(C)C)o1	1
COc1ccc(C(Cl)=C(c2ccc(OC)cc2)c2ccc(OC)cc2)cc1	0.99
C[C@H](N)[C@H](O)c1ccc(O)c(O)c1	0.976

Please give normalized growth for each item listed below.
1. C[C@H]1[C@H]2CCC3C4CC=C5C[C@@H](N(C)C)CC[C@]5(C)C4CC[C@@]32CN1C (stereo partly specified)
2. C=CC(C1=CC(=O)C=CC1=O)c1ccccc1 (stereo unspecified)
3. O[N+]1=CC=CCC1=S.On1ccccc1=S.[Zn]
4. CN(C)CCOC(C)(c1ccccc1)c1ccccn1 (stereo unspecified)
5. CCN(CC)CCOc1ccc2c(c1)C(=O)c1cc(OCCN(CC)CC)ccc1-2
6. C=CC(C1=CC(=O)C(OC)=CC1=O)c1ccccc1 (stereo unspecified)

1: 1; 2: 0.978; 3: 0.0708; 4: 1; 5: 0.97; 6: 0.737

###

Provide the reported normalized growth of each item.
# experiment: chemical genetic growth profiling, strain panel (AID 1159580)
# measurement-conditions: S. cerevisiae deletion strains, growth OD, locus YER015W, strain faa2, active compounds read low
The whole screen tested about 5,500 compounds, of which about 2,000 (36%) were called active. Roughly 18% stayed inconclusive and do not appear here. This is one part of the list.
Answers are plain numbers.

compound	normalized growth
C=CC(C1=CC(=O)C(OC)=CC1=O)c1ccc(OC)cc1 (stereo not given)	0.906

Please give normalized growth for each item listed below.
1. COC(C)(C)CCC[C@H](C)C/C=C/C(C)=C/C(=O)OC(C)C
2. Cc1c(Nc2ncccc2C(=O)O)cccc1C(F)(F)F
3. O=C(O)c1ccccc1Nc1ccccc1

[1.01, 0.988, 0.947]

Please give normalized growth for each item listed below.
1. C=C[C@@H](C1=CC(=O)C(OC)=C(OC)C1=O)c1ccccc1
2. C=CC(C1=CC(=O)C(OC)=CC1=O)c1ccccc1 (stereo not given)
3. C[C@H]1[C@H]2CCC3C4CC=C5C[C@@H](N(C)C)CC[C@]5(C)C4CC[C@@]32CN1C (stereo not given in full)
4. COc1cc(OC)c2c(=O)c(-c3ccccc3)c(C)oc2c1OC
5. OC[C@@H]1CCCN2CCCC[C@H]12
6. C=CC(C1=CC(=O)C=CC1=O)c1ccccc1 (stereo not given)

[0.588, 0.815, 0.986, 0.981, 1.03, 0.996]

###

# experiment: chemical genetic growth profiling, strain panel (AID 1159580)
# measurement-conditions: S. cerevisiae deletion strains, growth OD, locus YOR316C, strain cot1, active compounds read low
Among all 5,500 compounds or so, about 2,000 (36%) were called active. Not shown: some 18% with an inconclusive outcome. This is one part of the list.
observation-type: normalized growth
One number for each entry.

Examples with answers:
compound	observation-type	number
C1CNCCN1	normalized growth	0.997
Nc1ncn([C@@H]2O[C@H](CO)[C@@H](O)[C@H]2O)c(=O)n1	normalized growth	0.997
Nc1ccc(S(=O)(=O)Nc2ccc(Cl)nn2)cc1	normalized growth	0.997
CCCCC1=NC2(CCCC2)C(=O)N1Cc1ccc(-c2ccccc2-c2nn[nH]n2)cc1	normalized growth	0.984

I'd like to know its normalized growth. The compound in question is COC(=O)C[C@H]1C(C)(C)C(=O)[C@@H]2CC3=C4CC(=O)O[C@@H](c5ccoc5)[C@]4(C)CCC3[C@@]1(C)C2=O (stereo not given in full)
1.01

###

Provide the reported normalized growth of each item.
# experiment: chemical genetic growth profiling, strain panel (AID 1159580)
# measurement-conditions: S. cerevisiae deletion strains, growth OD, locus YHR030C, strain SLT2, active compounds read low
In all, about 5,500 compounds went through this assay and about 2,000 (36%) were called active. Not shown: some 18% with an inconclusive outcome. This is one part of the list.

Examples with answers:
compound	result
COc1ccc(OC)c(S(=O)(=O)N2CCc3cc(OC)c(OC)cc3C2C)c1 (stereo not drawn)	0.996 (inactive)
O=C(COC(=O)c1ccccc1Nc1ccccc1)c1ccc(Cl)cc1	1.01 (inactive)
NC(=Nc1ccc(F)cc1)SCc1c(Cl)cccc1Cl	0.985 (inactive)

Please give normalized growth for each item listed below.
1. O=C(O[C@@H]1Cc2c(O)cc(O)cc2O[C@@H]1c1cc(O)c(O)c(O)c1-c1c([C@H]2Oc3cc(O)cc(O)c3C[C@H]2O)cc(O)c(O)c1O)c1cc(O)c(O)c(O)c1
2. O=C(Nc1ccccc1F)C(Cl)Cl

1: 0.219 (active); 2: 1.07 (inactive)

Please give normalized growth for each item listed below.
1. CC(=O)c1sc(SCc2ccc(Cl)cc2)c2c1CC(C)(C)CC2=O
2. COc1ccc(NS(=O)(=O)c2c(C)noc2C)cc1

1. 0.793 (inactive)
2. 1.06 (inactive)

###

Provide the reported normalized growth of each item.
# experiment: chemical genetic growth profiling, strain panel (AID 1159580)
# measurement-conditions: S. cerevisiae deletion strains, growth OD, locus YPR167C, strain met16, active compounds read low
In all, about 5,500 compounds went through this assay and about 2,000 (36%) were called active. Inconclusive results (about 18%) are left out. This is one part of the list.
Answers are plain numbers.

compound	normalized growth
Nc1ccc(S(=O)(=O)Nc2ccc(Cl)nn2)cc1	1
CNc1ccccc1C(=O)O	1.02

Please give normalized growth for each item listed below.
1. NCC(O)c1ccc(O)cc1 (stereo not drawn)
2. CNC[C@@H](O)c1ccc(O)c(O)c1

0.974
0.989

Please give normalized growth for each item listed below.
1. NCCCC[C@H](N[C@@H](CCc1ccccc1)C(=O)O)C(=O)N1CCC[C@H]1C(=O)O
2. O=C1O[C@H](C(O)CO)C(O)=C1O (stereo partly drawn)
3. C1CNCCN1
4. NC[C@H](O)c1ccc(O)c(O)c1

[0.999, 0.998, 0.985, 1.02]

###

# experiment: chemical genetic growth profiling, strain panel (AID 1159580);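 further: tested at 20 µM; growth read once vehicle control cultures reached saturation at 30 °C; 1 = growth at the plate median or of vehicle wells; lower values mean less growth of the strain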
# measurement-conditions: S. cerevisiae deletion strains, growth OD, locus YMR001C, strain CDC5, active compounds read low
The whole screen tested about 5,500 compounds, of which about 2,000 (36%) were called active. About 18% were inconclusive and are not listed. This is one part of the list.
Provide the reported normalized growth of each item.
One number for each entry.

compound	number
CC(=O)c1sc(SCCS(=O)(=O)c2ccc(C)cc2)c2c1CC(C)(C)CC2=O	0.983
FC(F)(F)c1cccc(NC(=S)Nc2csc(C(F)(F)F)c2-c2ccccc2)c1	0.993
O=[N+]([O-])c1ccccc1CS(=O)(=O)c1nc2ccccc2s1	0.891
O=C1CSC(c2cccnc2)N1c1ccc(Cl)cc1Cl (stereo not drawn)	0.991
Fc1cccc(Cl)c1CSc1nncn1-c1ccc(OCc2ccccc2)cc1	1
Cc1c2c(=O)[nH]ncc2c(-c2ccccc2)n1-c1ccc([N+](=O)[O-])cc1	0.989
CC(C)c1ccc(NCC(O)CSc2ccccc2)cc1 (stereo not drawn)	0.956

I'd like to know its normalized growth. The compound in question is O=C(NC(=O)c1c(F)cccc1Cl)OCc1ccc(Cl)cc1Cl
0.985

###

Provide the reported normalized growth of each item.
# experiment: chemical genetic growth profiling, strain panel (AID 1159580);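 further: tested at 20 µM; growth read once vehicle control cultures reached saturation at 30 °C; 1 = growth at the plate median or of vehicle wells; lower values mean less growth of the strain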
# measurement-conditions: S. cerevisiae deletion strains, growth OD, locus YDR054C, strain cdc34, active compounds read low
About 2,000 (36%) of roughly 5,500 compounds were called active. Inconclusive results (about 18%) are left out. The list shows a part of the results.

Examples with answers:
molecule	normalized growth
O=C1CSC(c2cccnc2)N1c1ccc(Cl)cc1Cl (stereo unspecified)	0.987 (inactive)
O=C(NCCSCc1ccco1)Nc1cc(Cl)cc(Cl)c1	0.942 (inactive)
O=c1c(Cl)c(-n2cccn2)cnn1-c1ccc(Cl)cc1Cl	0.913 (inactive)

Please give normalized growth for each item listed below.
1. O=C(NCCSCc1cccc(C(F)(F)F)c1)c1ccc(Cl)cc1
2. CCOC(=O)/C(=N/Nc1c(Cl)cccc1Cl)c1csc(N)n1
3. O=C(NCCSCc1cccc(C(F)(F)F)c1)Nc1cccc(C(F)(F)F)c1

1: 0.955 (inactive); 2: 0.996 (inactive); 3: 0.995 (inactive)

###

Provide the reported normalized growth of each item.
# experiment: chemical genetic growth profiling, strain panel (AID 1159580);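 further: tested at 20 µM; growth read once vehicle control cultures reached saturation at 30 °C; 1 = growth at the plate median or of vehicle wells; lower values mean less growth of the strain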
# measurement-conditions: S. cerevisiae deletion strains, growth OD, locus YLL041C, strain sdh2, active compounds read low
About 2,000 (36%) of roughly 5,500 compounds were called active. Not shown: some 18% with an inconclusive outcome. Some of the results follow.
Give bare numbers.

compound	normalized growth
CS(=O)(=O)CCCCN=C=S	0.801
CC(=O)Nc1ccc(S(=O)(=O)c2ccc(NC(C)=O)cc2)cc1	0.997
COc1ccccc1OCCNCC(O)COc1cccc2[nH]c3ccccc3c12 (configuration not stated)	1.01
CC1(C)C(C(Cl)Cl)C2(Cl)C(Cl)C(Cl)C1(Cl)C2(Cl)Cl (configuration not stated)	0.989
CC(=O)Oc1ccc(Cl)c2cccnc12	0.0561

Please give normalized growth for each item listed below.
1. Cc1occc(=O)c1O
2. Oc1c(I)cc(I)c2cccnc12

[0.977, 0.083]
